# reverse-splicing fitness per entry
B1: Azoarcus group I ribozyme (parent)
chain: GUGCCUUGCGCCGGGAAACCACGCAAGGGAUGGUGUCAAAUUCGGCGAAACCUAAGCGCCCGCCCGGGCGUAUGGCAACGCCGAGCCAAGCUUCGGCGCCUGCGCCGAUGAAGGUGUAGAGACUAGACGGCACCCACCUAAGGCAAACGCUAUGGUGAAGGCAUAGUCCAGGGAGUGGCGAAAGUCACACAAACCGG

- Variants of: B1
- Test Description: reverse-splicing fitness (ratio to wild type); higher = more active; in vitro selection; Mg2+ level not given
Please give the numeric answer without any surrounding text.

| Sequence Variant | reverse-splicing fitness |
| --- | --- |
| C82G A111G C150G C169G U176G | 0.00613 |
| C82U A111G A120C C150A C169G U176G | 0.00458 |
| C82U A111C A120G A145C U176C | 0.0128 |
| A111C A120U A145U C169G U176C | 0.00935 |
| A111U A120G A145U C150G C169G | 0.021 |

Find the recorded reverse-splicing fitness belonging to A111G A145G C169G U176A and report it. 0.0326

What do we get for C82U C169G ? 0.00984

What do we get for C82U A111U A145C C150A U176C ? 0.013

What do we get for C82U A111U A120G A145U C150G C169G ? 0.00671

What do we get for C82U A111U A120U A145U C150U U176A ? 0.00665

What do we get for C82A A111U A120G A145U C150G C169A U176A ? 0.0086

What do we get for C82A A111U A120C A145U C150G C169G U176G ? 0.00698
